- test method notes: qHTS assay to test for compound auto fluorescence at 535 nm (green) in HEK293 cell free culture (AID 720682); further: on the % scale 0 is the no-effect control and ±100 the full control effect
- protocol conditions: cell-free medium, green autofluorescence 485/535 nm, stronger effect = higher value; series mostly up to 91.3 µM
The source made the active and inactive calls. The call rests on the fitted dose curve; in most records, active means well fitted curve in the direction sought with a large enough effect in the repeat runs; inconclusive means weak or mixed curves; inactive means flat fitted curve, though single readings scatter.
measured endpoint: activity change

{"columns": ["compound", "activity change"],
 "data": [
  ["ClC1=C(Cl)[C@]2(Cl)[C@H]3[C@H]([C@H]4C=C[C@H]3C4)[C@@]1(Cl)C2(Cl)Cl", "inactive"],
  ["BrC(Br)C(Br)(Br)Br", "inactive"],
  ["Clc1ccc(C(Cl)(Cl)Cl)c(Cl)c1", "inactive"],
  ["ClC(Cl)=C(c1ccc(Cl)cc1)c1ccc(Cl)cc1", "inactive"],
  ["CC1(C)CC/C(=C/c2ccc(Cl)cc2)C1(O)Cn1cncn1 (centres undefined)", "inactive"]
]}

Exercise: Field request: activity change | item: "CC(C)(O)c1cnn2c(-c3ccc(F)c(-c4c(F)cccc4C#N)c3)cnc2n1"
Solution: inactive

Exercise: What do you have for CC(C)CC(C)Nc1ccc(Nc2ccccc2)cc1 (centres undefined) ?
Solution: inactive

Exercise: What do you have for "Cc1cc(C)c(C2=C(OC(=O)CC(C)(C)C)C3(CCCC3)OC2=O)c(C)c1" ?
Solution: inactive

Exercise: What do you have for "CCCCOCN(C(=O)CCl)c1c(CC)cccc1CC" ?
Solution: inactive

Exercise: What do you have for "O=c1[nH]c2ccccc2n1C1CCN(CCCC(c2ccc(F)cc2)c2ccc(F)cc2)CC1" ?
Solution: inactive

Exercise: What do you have for "Oc1ccc(C(=C(Cl)Cl)c2ccc(O)cc2)cc1" ?
Solution: inactive

Exercise: What do you have for "CC(=O)[O-].[Tl+]" ?
Solution: inactive

Exercise: What do you have for "O=c1oc2ccccc2c(O)c1Cc1c(O)c2ccccc2oc1=O" ?
Solution: 0.109% [at 18.6 µM] (inactive)

Exercise: What do you have for "O=[N+]([O-])c1cc(C(F)(F)F)c(Cl)c([N+](=O)[O-])c1Cl" ?
Solution: inactive

Exercise: What do you have for "S=C=Nc1cccc2ccccc12" ?
Solution: inactive

Exercise: What do you have for CNC(C)Cc1ccc2c(c1)OCO2 (centres undefined) ?
Solution: inactive

Exercise: What do you have for "COc1cccc(C(=O)CCN[C@@H](C)[C@H](O)c2ccccc2)c1" ?
Solution: inactive

Exercise: What do you have for "CCCN(CCC)CCc1c[nH]c2ccccc12" ?
Solution: inactive

Exercise: What do you have for "CC(=O)[O-].CC(=O)[O-].O.O.[Cd+2]" ?
Solution: inactive

Exercise: What do you have for "O=C(CCl)Nc1ccccc1" ?
Solution: inactive

Exercise: What do you have for "ClC1=C(Cl)[C@]2(Cl)[C@@H]3[C@@H]4C[C@@H]([C@H]5O[C@@H]45)[C@@H]3[C@@]1(Cl)C2(Cl)Cl" ?
Solution: inactive

Exercise: What do you have for "CC(C)Oc1cccc(NC(=O)c2ccccc2C(F)(F)F)c1" ?
Solution: inactive

Exercise: What do you have for "CC1(C)CN=C(NN=C(/C=C/c2ccc(C(F)(F)F)cc2)/C=C/c2ccc(C(F)(F)F)cc2)NC1" ?
Solution: inactive

Exercise: What do you have for "CCCCCCCCCCCCBr" ?
Solution: inactive
